Entry source: ChEMBL document CHEMBL1134054

biological target: Mitogen-activated protein kinase 14 (Homo sapiens, UniProt Q16539); test: Percent inhibition determined in vitro against mitogen-activated protein kinase p38 alpha 2 derived from Escherichia coli at 5 uM
Sequence (Q16539 whole entry): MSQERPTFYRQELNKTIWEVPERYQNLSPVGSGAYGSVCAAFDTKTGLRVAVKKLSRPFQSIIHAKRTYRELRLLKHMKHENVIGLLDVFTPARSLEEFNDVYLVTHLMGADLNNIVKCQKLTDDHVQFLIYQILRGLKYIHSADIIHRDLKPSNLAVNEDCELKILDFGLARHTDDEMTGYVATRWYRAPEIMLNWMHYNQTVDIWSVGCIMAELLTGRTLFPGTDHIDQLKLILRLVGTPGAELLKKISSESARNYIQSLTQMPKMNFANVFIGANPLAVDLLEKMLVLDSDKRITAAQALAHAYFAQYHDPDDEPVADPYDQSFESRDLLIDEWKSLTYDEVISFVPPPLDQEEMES
endpoint-label: inhibition (%)

Examples with answers:
>>> df
                              smiles_record  reported_value
0  COC(=O)c1[nH]c(C(C)(C)C)cc1NC(=O)Nc1ccccc1Cl              85
1  CNC(=O)c1sc(C(C)(C)C)cc1NC(=O)Nc1ccc(F)cc1              80
2  COC(=O)c1sc(C(C)(C)C)cc1NC(=O)Nc1ccc(NC(C)=O)cc1              23

I. COC(=O)c1sc(C(C)(C)C)cc1NC(=O)Nc1ccc([N+](=O)[O-])cc1
II. CCc1ccc(NC(=O)Nc2cc(C(C)(C)C)sc2C(=O)NC)cc1
III. COC(=O)c1sc(C(C)(C)C)cc1NC(=O)Nc1ccc(OC)cc1
# desc sort on inhibition across 3 compounds Rank the items, then write their labels in that order.
II, I, III
(II: 70%, I: 16%, III: 8%)

1. COC(=O)c1sc(C(C)(C)C)cc1NC(=O)Nc1ccccc1
2. COC(=O)c1[nH]c(C(C)(C)C)cc1NC(=O)Nc1cccc(Cl)c1Cl
3. CCc1ccc(NC(=O)Nc2cc(C(C)(C)C)sc2C(=O)OC)cc1
Order each entry by recorded inhibition, climbing from the minimum. Provide the labels, sequenced as the question asks.
3, 1, 2
